target or test system: A1PI (Homo sapiens, UniProt P01009)
Construct: Human plasma is currently the only approved source of therapeutic AlPI
Sequence (P01009 25-418): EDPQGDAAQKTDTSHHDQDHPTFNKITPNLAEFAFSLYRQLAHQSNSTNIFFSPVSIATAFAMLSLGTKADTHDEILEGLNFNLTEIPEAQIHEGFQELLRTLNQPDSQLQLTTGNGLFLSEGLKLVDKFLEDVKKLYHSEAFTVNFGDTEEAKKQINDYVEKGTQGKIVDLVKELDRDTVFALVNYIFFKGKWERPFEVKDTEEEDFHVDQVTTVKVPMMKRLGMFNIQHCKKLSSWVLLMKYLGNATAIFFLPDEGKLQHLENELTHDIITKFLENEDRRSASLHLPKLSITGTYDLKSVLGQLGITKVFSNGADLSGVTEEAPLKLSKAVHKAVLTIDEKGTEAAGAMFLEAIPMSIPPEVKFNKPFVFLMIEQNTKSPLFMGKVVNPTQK
test name: A1PI binding on peptide-resin column, injection of 1 mg A1PI in equilibration buffer
experimental parameters: VIWLVR N-terminal point mutations; 1 mg A1PI, 4° C.
Ends that are not written are not given here.
Listed below: % of Total A1PI Eluted by Fraction (Based on Absorbance at 280 nm), Flowthrough values for each entry.
# unit: % | format: bare number

For orientation, consider the following solved cases.
SSWLVR: point mutation of VIWLVR on Ala-Totda-Toyopearl (not fully specified (C-terminus)) ... 0
DHWLVR: point mutation of VIWLVR on Ala-Totda-Toyopearl (not fully specified (C-terminus)) ... 53
VIWLVR ... 45

Query: Tell us which % of Total A1PI Eluted by Fraction (Based on Absorbance at 280 nm), Flowthrough value is on record for DDWLVR: point mutation of VIWLVR on Ala-Totda-Toyopearl (not fully specified (C-terminus))
Response: 99

Query: Determine its reported % of Total A1PI Eluted by Fraction (Based on Absorbance at 280 nm), Flowthrough: HHWLVR: point mutation of VIWLVR on Ala-Totda-Toyopearl (not fully specified (C-terminus))
Response: 0

Query: State, in one line, measured % of Total A1PI Eluted by Fraction (Based on Absorbance at 280 nm), Flowthrough of HNWLVR: point mutation of VIWLVR on Ala-Totda-Toyopearl (not fully specified (C-terminus))
Response: 0

These data points were gathered from patent US5985836A.
